Study the reported pIC50 values for Fatty-acid amide hydrolase 1 (Rattus norvegicus, UniProt P97612) given below; they originate from different publications.
pIC50: −log10 of the molar value.
Short version: pIC50 at least 7 is True, less is False.

Examples with answers:
{"COMPOUND": "CCCCCCOc1ccc(OCC(=O)Cn2nnc(CCC(=O)O)n2)cc1", "CLASS LABEL": "True"}
{"COMPOUND": "CCCCCCCCCCCC(=O)c1ncc(CCS(=O)(=O)CCC[N+](C)(C)C)o1", "CLASS LABEL": "False"}
{"COMPOUND": "O=C(Nc1cccnc1Cl)N1CC2(CCN(Cc3cccc(Oc4ccc(Cl)cc4)c3)CC2)C1", "CLASS LABEL": "False"}
{"COMPOUND": "CC(=O)c1c(-c2ccccc2)c(-c2ccccc2)n(CCCCCCNC(=O)Oc2ccccc2)c1C", "CLASS LABEL": "False"}
{"COMPOUND": "O=C(Nc1cnc2[nH]ccc2c1)N1CC[C@@H]2CN(Cc3cccc(Oc4ccc(Cl)cc4)c3)C[C@@H]21", "CLASS LABEL": "True"}

Query string: Decide: is the reported value of pIC50 for Cc1cc(-c2ccccc2)c(-c2ccccc2)n1CCCCNC(=O)Oc1ccccc1 equal to or greater than 7?
Result string: False

Query string: Item CCCCCCCCc1ccc(OCC(=O)Cn2cnc3cccnc32)cc1 with pIC50 of 7 or above?
Result string: False

Query string: Identify whether the reported pIC50 of the following compound is 7 or greater: O=C(N(Cc1ccccc1)Cc1ccccc1)N1CC(OC(c2ccc(Cl)cc2)c2cccnc2Cl)C1 (racemic)
Result string: False

Query string: Item O=C(N1CCC(Cc2ccccc2)CC1)N1CC(OC(c2ccc(Cl)cc2)c2cccnc2Cl)C1 (racemic) with pIC50 of 7 or above?
Result string: False
